So I've got a bunch of binders here, and I need their koff values.
Biological target: T1, cynomolgus monkey KLK5 (cynomolgus monkey, UniProt Q9Y337 67-293 (human entry))
T1 construct: also called cyno KLK5
T1 chain: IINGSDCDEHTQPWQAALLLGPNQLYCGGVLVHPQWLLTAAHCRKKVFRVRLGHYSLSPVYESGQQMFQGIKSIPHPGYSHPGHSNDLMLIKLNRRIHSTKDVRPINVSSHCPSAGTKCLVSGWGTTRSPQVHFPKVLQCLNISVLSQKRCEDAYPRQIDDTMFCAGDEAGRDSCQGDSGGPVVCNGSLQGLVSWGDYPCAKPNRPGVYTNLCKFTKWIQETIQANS
Assay: SPR, one-armed monovalent antibody
Give bare numbers, in s⁻¹.

BINDER: OA.hu.10C5.N53V.S95F (antibody, V domains shown, One-armed (OA) monovalent anti-KLK5 antibody with a human IgG1 Fc, with Q38E/Q39K; constant regions and dummy Fc chain not specified) VH: EVQLVESGGGLVQPGGSLRLSCAASGFSLSSYGVTWVRKAPGKGLEWIGYITSVYGVSYYASWAKSRSTISRDTSKNTVYLQMGSLRAEDMAVYYCARENPDYGYAYDAWGQGTTVTVSS VL: AIRMTQSPSSFSASTGDRVTITCQASESISNELSWYQEKPGKAPKLLIYYASTLASGVPSRFSGSGSGTDFTLTISSLQPEDFATYYCAQGFGSFGVENVFGGGTKVEIK
TEST_READOUT: koff
UNIT_TAG: s⁻¹
TEST_VALUE: 0.0001
//
BINDER: OA.hu.10C5.N53V.S34K (antibody, V domains shown, One-armed (OA) monovalent anti-KLK5 antibody with a human IgG1 Fc, with Q38E/Q39K; constant regions and dummy Fc chain not specified) VH: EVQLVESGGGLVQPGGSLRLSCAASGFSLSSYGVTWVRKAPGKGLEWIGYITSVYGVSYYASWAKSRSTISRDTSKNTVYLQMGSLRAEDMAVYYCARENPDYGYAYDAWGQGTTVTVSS VL: AIRMTQSPSSFSASTGDRVTITCQASESISNELKWYQEKPGKAPKLLIYYASTLASGVPSRFSGSGSGTDFTLTISSLQPEDFATYYCAQGFGSSGVENVFGGGTKVEIK
TEST_READOUT: koff
UNIT_TAG: s⁻¹
TEST_VALUE: 8.88e-05

Read the next record carefully.
Quick check: koff of OA.hu.10C5.N53V.S34K.F92Y (antibody, V domains shown, One-armed (OA) monovalent anti-KLK5 antibody with a human IgG1 Fc, with Q38E/Q39K; constant regions and dummy Fc chain not specified) VH: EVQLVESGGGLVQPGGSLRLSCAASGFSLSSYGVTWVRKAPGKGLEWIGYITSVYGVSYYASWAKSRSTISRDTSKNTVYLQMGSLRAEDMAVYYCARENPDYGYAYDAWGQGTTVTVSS VL: AIRMTQSPSSFSASTGDRVTITCQASESISNELKWYQEKPGKAPKLLIYYASTLASGVPSRFSGSGSGTDFTLTISSLQPEDFATYYCAQGYGSSGVENVFGGGTKVEIK ? 3.08e-05
